# credit: the RNAGym collection of RNA variant scans (doi:10.7554/elife.80360)

B1: CPEB3 Ribozyme (parent)
chain: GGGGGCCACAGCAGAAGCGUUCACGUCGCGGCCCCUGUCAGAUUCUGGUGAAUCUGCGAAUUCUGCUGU

Variants of: B1
method notes: self-cleavage, relative activity (ratio to wild type); higher = more cleavage; co-transcriptional
Below is a list of entries, each paired with its recorded self-cleavage value.

seq text	self-cleavage
GGGGGCCACAGCAGAAGCGUUCACGUCGCGGCCGCUGUCAGAUUCUGGUGAAGCUGCGAAUUCUGCUGU [C34G U53G]	0.27
GGGGGCCACAGCAGAAGCGUUCACGUCGCGGCCCCUGUCAGAUUCCGGUGAAUCUGCGAAUUUUGCUGU [U46C C63U]	0.983
GGGGGCCACAACAGAAGCGUUCACGUCGCGGCCCCUAUCAGAUUCUGGUGAAUCUGCGAAUUCUGCUGU [G11A G37A]	0.188
GGGGGCCACAGCAGAAGCGUUCACGUCGCGGCCACUGUCAGAUUCUGGUGAAUCUGCGAACUCUGCUGU [C34A U61C]	0.432
GGGGGCCACAGCAGAAGCGUUCACGUCGCGGCCCCUGUCAGAUUCUGGUAAAUCUGCGAAAUCUGCUGU [G50A U61A]	0.862
GGGGGCCACAGCAGGAGCGUUCACGUCGCGGCCCCUGUCAGAUUGUGGUGAAUCUGCGAAUUCUGCUGU [A15G C45G]	0.965
GGGGGCCACAGCAGAAGCGUUCACGUCGCGGCCCCGGUCAGAUUCUGCUGAAUCUGCGAAUUCUGCUGU [U36G G48C]	0.266
GGGGGCCACAGGAGAAGCGUUCACGUCGCGGCCCCUGUCAGAUUCUGGUGAAUCUGCGAAUUCUGCAGU [C12G U67A]	0.8
GGGGGCCACAGCAGAAGCGUUCACGUCGCGGCCCCUGUCAGAUGCUGGUGAAUCUGCGAAUUCUGCGGU [U44G U67G]	1.01
CGGGGACACAGCAGAAGCGUUCACGUCGCGGCCCCUGUCAGAUUCUGGUGAAUCUGCGAAUUCUGCUGU [G1C C6A]	0.26
GGGGGCCACAGCAGAAGCGUUCACGUCGCGGCCCCUGUCAGAUUCUAGUGAAUCUGCGAAUUCUGCGGU [G47A U67G]	1.06
GGGGGCCACAGCAGAAGCGUUCACGUCGCGGCCCUUGUCAGAUUCGGGUGAAUCUGCGAAUUCUGCUGU [C35U U46G]	0.967
GGGGGCCACAGCAGCAGCGUUCACGUCGCGGCCCCUUUCAGAUUCUGGUGAAUCUGCGAAUUCUGCUGU [A15C G37U]	0.168
GGGGGCCACAGCUGAAGCGUUCACGUCGCGGCCCCUGUCAGAUUGUGGUGAAUCUGCGAAUUCUGCUGU [A13U C45G]	0.814
GGGGGCCACAUCAGAAGCGUUCACGUCGCGGGCCCUGUCAGAUUCUGGUGAAUCUGCGAAUUCUGCUGU [G11U C32G]	0.295
AGGGGCCACAGCAGAAGCGUUCACGUCGCGGCCCCUGUCAGAUUCUGGUGAGUCUGCGAAUUCUGCUGU [G1A A52G]	0.0619
GUGGGCCACAGCAGAAGCGUUCACGUCACGGCCCCUGUCAGAUUCUGGUGAAUCUGCGAAUUCUGCUGU [G2U G28A]	0.0437
GGGGGCCACAGCAAAAGCGUUCACGUCGCGGCCCCUGUUAGAUUCUGGUGAAUCUGCGAAUUCUGCUGU [G14A C39U]	0.362
GGGGGCCACAGAAGAAGCGUUCACGUCGCGGCCCCUGUCAGAUUCUGAUGAAUCUGCGAAUUCUGCUGU [C12A G48A]	0.833
GGGGGCCACAGCAGAAGCGUUCACGUCGCGGCCCCUGUCAGAUUCUCGCGAAUCUGCGAAUUCUGCUGU [G47C U49C]	0.981
GGGGGCCACAGCAGAAGCGUUCACAUCGCGGCCCCGGUCAGAUUCUGGUGAAUCUGCGAAUUCUGCUGU [G25A U36G]	0.176
GGGGGCCACAGCAGAAGAGUUCACGUCGCGGCCCCUGUCAGAUUCUGGUGAAUCUGCGAAUUCUGCUAU [C18A G68A]	0.357
GGGGGUCACAGCAGAAGCGUUCACGUCGCGGCCCCUGUCAGAUUCUGAUGAAUCUGCGAAUUCUGCUGU [C6U G48A]	1.03
GGGGGCCACAGCAGAAGCGUUCACGUCGCGGCUCCUGUCAGAUUGUGGUGAAUCUGCGAAUUCUGCUGU [C33U C45G]	0.98
GGGGGCCACAGCAGAAGCGAUCACGUCGCGGCCCCUGUCAGAUUCUGGUGAAUCUGCGAAUUCUCCUGU [U20A G65C]	0.113
GGGGACCACAGCAGAAGCGUUCACGUCGCGGCCCCUGUCCGAUUCUGGUGAAUCUGCGAAUUCUGCUGU [G5A A40C]	0.213
GGGGGCCACAGCAGAAUCGUGCACGUCGCGGCCCCUGUCAGAUUCUGGUGAAUCUGCGAAUUCUGCUGU [G17U U21G]	0.0999
GGGGGCCACAGCAGAAGCGUUCACGUCGCGACCCCUGUCUGAUUCUGGUGAAUCUGCGAAUUCUGCUGU [G31A A40U]	0.533
GGGGGCCACAGCAGAAGCGUUUACGUCGCGGCCCCUGUCAGAUUCUGGUGACUCUGCGAAUUCUGCUGU [C22U A52C]	0.233
GGGGGCCACAGCACAAGCGUUCACGUCGCGGCCCCUGUCAGAUUCUGGUGAAUCUCCGAAUUCUGCUGU [G14C G56C]	0.24
GGGGGCCACAGCAGAAGCGUUCACGUCGCGGCCCCUGUCAUAUUCUGGUGAAUCUGCGAAUUCUGAUGU [G41U C66A]	0.441
GGGGGACACAGCAGAAGCGUUCACGUCGCGCCCCCUGUCAGAUUCUGGUGAAUCUGCGAAUUCUGCUGU [C6A G31C]	0.762
GGGGACCACAGCAGAAGCGUUCACGUCGCGGCCCCUGACAGAUUCUGGUGAAUCUGCGAAUUCUGCUGU [G5A U38A]	0.816
GGGGGCCACAGCAGAAGCAUUCACGUCUCGGCCCCUGUCAGAUUCUGGUGAAUCUGCGAAUUCUGCUGU [G19A G28U]	0.132
GGGUGCCACAGCAGAAGCGUUCACGUCGCGGCCCAUGUCAGAUUCUGGUGAAUCUGCGAAUUCUGCUGU [G4U C35A]	0.114
GGGGGCCACAGCAGAAGCGUUCACGUCGCGGCCCCUGUCAGAUUCUGGUAAAUCUGCGAAUUCUGCAGU [G50A U67A]	0.989
GGGGGCCACAGCAGAAGCGUUCACGUCGCGGCCCCUGUCAGAUUCUCGUGAAUCUGCGAAUUCUGGUGU [G47C C66G]	0.91
GGCGGCCACAGCAGAAGCGUUCACGUCGCGGCCCCUGUCAAAUUCUGGUGAAUCUGCGAAUUCUGCUGU [G3C G41A]	0.0418
GAGGGCCACAGCAGUAGCGUUCACGUCGCGGCCCCUGUCAGAUUCUGGUGAAUCUGCGAAUUCUGCUGU [G2A A15U]	0.0881
GGGGGCCACAGCAGAAGCGUUCACGUCGCGUCCCGUGUCAGAUUCUGGUGAAUCUGCGAAUUCUGCUGU [G31U C35G]	0.252
GGGGGCCACAGCAGAAGCGUUCACGUCGCGGCCCCUGUAAGAUUCUGGUGAAUCUGCUAAUUCUGCUGU [C39A G58U]	0.948
GGGGGCCACAGCAGCAGCGUUCACGUCGCGGCCCGUGUCAGAUUCUGGUGAAUCUGCGAAUUCUGCUGU [A15C C35G]	0.285
GGGGGCUACAGCAGAAGAGUUCACGUCGCGGCCCCUGUCAGAUUCUGGUGAAUCUGCGAAUUCUGCUGU [C7U C18A]	0.165
GGGGGCCACAGCAGAAGCGUUCACGUCGUGGCCCCUGUCAGAUUCUGGUGAAUCUGCGAAUCCUGCUGU [C29U U62C]	0.211
GGGGGCCACAGCAGAAGCGUUCACGUCGCGGACCCUGUCAGAUUCUGGUGAACCUGCGAAUUCUGCUGU [C32A U53C]	0.455
GGGGGCCACAGCAGAAGCGUUCACAUCGCGGCCCCUGUGAGAUUCUGGUGAAUCUGCGAAUUCUGCUGU [G25A C39G]	0.16
